Listing of entries alongside the reported Activity.
- Tested on: P388
- Assay protocol: Cytotoxicity against mouse P388 cells
- Assay type: functional

For orientation, consider the following solved cases.
Compound	Study target	Activity
CC(C)=CCC[C@@H](C(=O)O)[C@H]1[C@H](O)C[C@@]2(C)C3=CC[C@H]4C(C)(C)C(=O)CC[C@]4(C)C3=CC[C@]12C	P388	237 µM
C/C(=C\CC[C@@H](C(=O)O)[C@H]1[C@H](O)C[C@@]2(C)C3=CC[C@H]4C(C)(C)[C@H](O)CC[C@]4(C)C3=CC[C@]12C)CO	P388	>125 µg/mL
CC(C)=CCC[C@@H](C(=O)O)[C@H]1[C@H](O)C[C@@]2(C)C3=CC[C@H]4C(C)(C)[C@H](O)CC[C@]4(C)C3=CC[C@]12C	P388	>125 µg/mL
C=C(C(=O)C[C@@H](C)[C@H]1CC[C@@]2(C)C3=C(CC[C@]12C)[C@@]1(C)CC[C@@H](OC(=O)CC(=O)O)C(C)(C)[C@@H]1CC3)C(C)C(=O)O (stereo not given in full)	P388	>125 µg/mL

# evaluate next
input: Quick check: Activity on P388, item CC(C(=O)O)[C@@H](C)C(=O)C[C@@H](C)[C@H]1CC[C@@]2(C)C3=C(CC[C@]12C)[C@@]1(C)CC[C@@H](OC(=O)CC(=O)O)C(C)(C)[C@@H]1CC3 (stereo not given in full) [CARBOXYACETYLQUERCINIC ACID] ?
output: >125 µg/mL
